molecular target: Mitogen-activated protein kinase 8 (Homo sapiens, UniProt P45983); assay: Inhibition of recombinant SAPK1c (unknown origin)
Sequence (P45983 whole entry): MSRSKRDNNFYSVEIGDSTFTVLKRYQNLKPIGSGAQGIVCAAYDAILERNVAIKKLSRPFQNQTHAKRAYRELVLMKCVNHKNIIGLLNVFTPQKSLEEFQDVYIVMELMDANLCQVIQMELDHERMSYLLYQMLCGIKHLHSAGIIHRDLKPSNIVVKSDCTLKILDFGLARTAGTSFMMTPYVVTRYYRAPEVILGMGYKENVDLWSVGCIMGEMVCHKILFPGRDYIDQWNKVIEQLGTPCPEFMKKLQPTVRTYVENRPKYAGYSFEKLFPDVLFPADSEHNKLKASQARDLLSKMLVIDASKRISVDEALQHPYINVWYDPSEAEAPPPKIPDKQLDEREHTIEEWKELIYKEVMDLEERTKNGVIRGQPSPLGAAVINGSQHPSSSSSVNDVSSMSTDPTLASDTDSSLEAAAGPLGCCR
pIC50: −log10 of the molar value.
Measurement label: pIC50

[[record]]
compound = "COc1cc2ncnc(Nc3ccc(F)c(Cl)c3)c2cc1NC(=O)/C=C/CN1CCCCC1 [DACOMITINIB ANHYDROUS]"
target_under_test = "Mitogen-activated protein kinase 8 (Homo sapiens, UniProt P45983)"
measurement_label = "pIC50"
measured_value = "< 5.00"


* * *

target: Ribosomal protein S6 kinase alpha-1 (Homo sapiens, UniProt Q15418); test: Inhibition of recombinant MAPKAP-K1a (unknown origin)
Sequence (Q15418 whole entry): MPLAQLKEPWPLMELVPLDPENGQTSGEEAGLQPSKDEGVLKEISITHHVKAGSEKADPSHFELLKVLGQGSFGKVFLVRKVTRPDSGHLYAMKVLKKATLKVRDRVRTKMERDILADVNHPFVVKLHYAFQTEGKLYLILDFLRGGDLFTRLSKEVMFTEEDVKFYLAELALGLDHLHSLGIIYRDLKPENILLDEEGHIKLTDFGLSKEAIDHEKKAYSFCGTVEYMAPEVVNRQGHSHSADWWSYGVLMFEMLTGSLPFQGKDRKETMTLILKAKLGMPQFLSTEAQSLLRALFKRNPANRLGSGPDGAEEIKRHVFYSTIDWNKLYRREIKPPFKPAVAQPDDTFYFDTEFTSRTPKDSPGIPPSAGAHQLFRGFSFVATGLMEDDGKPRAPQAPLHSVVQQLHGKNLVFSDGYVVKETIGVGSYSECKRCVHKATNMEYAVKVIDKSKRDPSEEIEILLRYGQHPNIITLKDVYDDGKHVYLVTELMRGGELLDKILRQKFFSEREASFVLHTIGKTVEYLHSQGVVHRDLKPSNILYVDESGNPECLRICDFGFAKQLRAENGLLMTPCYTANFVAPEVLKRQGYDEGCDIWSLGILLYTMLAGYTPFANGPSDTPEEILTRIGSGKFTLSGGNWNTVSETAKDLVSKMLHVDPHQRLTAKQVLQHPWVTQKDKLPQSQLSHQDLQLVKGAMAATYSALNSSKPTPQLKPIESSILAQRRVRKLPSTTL
pIC50: −log10 of the molar value.
Measurement label: pIC50

[[record]]
compound = "COc1cc2ncnc(Nc3ccc(F)c(Cl)c3)c2cc1NC(=O)/C=C/CN1CCCCC1 [DACOMITINIB ANHYDROUS]"
measured_value = "< 5.00"


Entry source: ChEMBL document CHEMBL5661976
